Source: PubChem BioAssay AID1851

Molecular target: Cytochrome P450 2C9 (Homo sapiens) (UniProt P11712)
Sequence (P11712 whole entry, looked up): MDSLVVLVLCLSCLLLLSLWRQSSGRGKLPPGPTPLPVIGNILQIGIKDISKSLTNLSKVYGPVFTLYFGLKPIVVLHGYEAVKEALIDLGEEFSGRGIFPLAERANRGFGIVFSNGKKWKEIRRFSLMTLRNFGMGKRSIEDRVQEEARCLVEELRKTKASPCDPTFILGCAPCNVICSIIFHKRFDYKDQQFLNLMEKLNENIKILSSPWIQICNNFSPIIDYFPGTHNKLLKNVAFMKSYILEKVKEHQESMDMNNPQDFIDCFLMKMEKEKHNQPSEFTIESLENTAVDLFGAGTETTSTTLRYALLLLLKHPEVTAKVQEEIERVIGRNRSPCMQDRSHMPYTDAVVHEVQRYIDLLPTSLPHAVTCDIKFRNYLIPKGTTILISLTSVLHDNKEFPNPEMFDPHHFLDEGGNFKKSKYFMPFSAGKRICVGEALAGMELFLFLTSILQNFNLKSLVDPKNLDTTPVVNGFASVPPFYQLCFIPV
Assay: Cytochrome panel assay with activity outcomes
Settings: recombinant CYP, pro-luciferin dealkylation, luminescence, p450-cyp2c9; series mostly up to 57.1 µM
The campaign covered roughly 16,000 compounds. About 4,000 (25%) were called active. Inconclusive results (about 26%) are left out. Calls come from the whole dose curve; as a rule, active = well fitted curve in the direction sought with a large enough effect; inconclusive = small, poorly fitted or top-dose-only effect, or effect the other way; inactive = no such curve, though single readings can be large or run the other way. A selection follows.
Outcome codes: t = active, f = inactive

> print(dat)
                                    compound                               test.system  label.value
 1  C/C(Cn1nc([N+](=O)[O-])cc1C)=N\NC(=O)c1ccc(O)cc1O  Cytochrome P450 2C9 (Homo sapiens) (UniProt P11712)            f
 2        CCCC(=O)Nc1nnc(SCC(=O)NCc2cccs2)s1  Cytochrome P450 2C9 (Homo sapiens) (UniProt P11712)            f
 3  O=C(Nc1nc2ccccc2n1Cc1ccccc1)c1ccc(COc2ccccc2[N+](=O)[O-])o1  Cytochrome P450 2C9 (Homo sapiens) (UniProt P11712)            t
 4  Cc1c(Cl)c([N+](=O)[O-])nn1Cc1ccc(C(=O)N/N=C\c2cccc(Br)c2)o1  Cytochrome P450 2C9 (Homo sapiens) (UniProt P11712)            t
 5      Cc1c(C)n(C(=O)CN2CCC(C)CC2)c2ccccc12  Cytochrome P450 2C9 (Homo sapiens) (UniProt P11712)            f
 6  C[C@@H]1Cc2ccccc2N1NC(=O)c1ccc(Cl)c(S(N)=O)c1 (stereo not given in full)  Cytochrome P450 2C9 (Homo sapiens) (UniProt P11712)            f
 7  Cc1nnc(SCC2=C(C(=O)O)N3C(=O)[C@@H](NC(=O)Cn4cnnn4)[C@@H]3SC2)s1  Cytochrome P450 2C9 (Homo sapiens) (UniProt P11712)            f
 8  CC(=O)N1c2ccc(S(=O)(=O)CCC(=O)O)cc2CC1C (stereo not given)  Cytochrome P450 2C9 (Homo sapiens) (UniProt P11712)            f
 9  CC1CSc2nc3sc4c(c3c(=O)n21)CCCC4 (stereo not given)  Cytochrome P450 2C9 (Homo sapiens) (UniProt P11712)            t
10        COC(=O)N1CCC2(CCCN(Cc3nccs3)C2)CC1  Cytochrome P450 2C9 (Homo sapiens) (UniProt P11712)            f
11  O=c1/c(=C\c2ccc(O)cc2)sc2n1C(c1ccccc1)C(c1ccccc1)=NN=2 (stereo not given)  Cytochrome P450 2C9 (Homo sapiens) (UniProt P11712)            t
12  Cc1ccc(C)c(-c2cc(C(=O)Nc3sc(C)c(C)c3C(N)=O)c3ccccc3n2)c1  Cytochrome P450 2C9 (Homo sapiens) (UniProt P11712)            t
13  Nc1nonc1-c1noc(CCCN2C(=O)c3ccccc3C2=O)n1  Cytochrome P450 2C9 (Homo sapiens) (UniProt P11712)            f
14              C[N+](C)(C)CCCCCC[N+](C)(C)C  Cytochrome P450 2C9 (Homo sapiens) (UniProt P11712)            f
15  Cc1ccc(-c2cc(C(=O)NCc3ccco3)c3ccccc3n2)s1  Cytochrome P450 2C9 (Homo sapiens) (UniProt P11712)            t
16  Cc1ccc(-c2ccc(CCC(=O)O)n2CC2CCCO2)cc1 (stereo not given)  Cytochrome P450 2C9 (Homo sapiens) (UniProt P11712)            f
17  Cc1c(Cl)c([N+](=O)[O-])nn1Cc1ccc(C(=O)N/N=C\c2cc(Cl)ccc2O)o1  Cytochrome P450 2C9 (Homo sapiens) (UniProt P11712)            t
18                                 NCCS(=O)O  Cytochrome P450 2C9 (Homo sapiens) (UniProt P11712)            f
19     Cc1ccc(Nc2ncccc2C(=O)NCc2cccs2)c(C)c1  Cytochrome P450 2C9 (Homo sapiens) (UniProt P11712)            t
20  CC(=O)c1ccc(NC(=O)C(Cc2ccccc2)NC(=O)c2ccco2)cc1 (stereo not given)  Cytochrome P450 2C9 (Homo sapiens) (UniProt P11712)            t
21  CCS(=O)(=O)N1CCCC(C(=O)NCCCOC(C)C)C1 (stereo not given)  Cytochrome P450 2C9 (Homo sapiens) (UniProt P11712)            f
22  C[C@@H]1CC[C@H]2C(=O)N3[C@@H](CC[C@@H](C)[C@@H]3c3ccc(Br)cc3)C(=O)N2[C@@H]1c1ccc(Br)cc1  Cytochrome P450 2C9 (Homo sapiens) (UniProt P11712)            t
23  Cc1ccc(-n2c(O)c(/C=N/n3cnnc3)c3ccccc3c2=O)cc1  Cytochrome P450 2C9 (Homo sapiens) (UniProt P11712)            t
24  Cc1nc2cnc(N3CCN(C)CC3)nc2n(Cc2ccc(F)cc2)c1=O  Cytochrome P450 2C9 (Homo sapiens) (UniProt P11712)            f
25  CC1Cc2ccccc2N1C(=O)CN1C(=O)COc2ccccc21 (stereo not given)  Cytochrome P450 2C9 (Homo sapiens) (UniProt P11712)            t

###

Biological target: Cytochrome P450 2C9 (Homo sapiens) (UniProt P11712)
Assay: Cytochrome panel assay with activity outcomes
Conditions: recombinant CYP, pro-luciferin dealkylation, luminescence, p450-cyp2c9; series mostly up to 57.1 µM
The campaign covered roughly 16,000 compounds. About 4,000 (25%) were called active. Not shown: some 26% with an inconclusive outcome. Not all results are given here.
ATTRIBUTE MEASURED: outcome

> print(dat)
                                smiles.data    result
1            O=C(NCCc1ccc(Cl)cc1)c1ncn[nH]1  inactive
2               Cc1ccccc1/C=N\NC(=O)c1csnn1  inactive
3          COCCn1c(=O)c(C)nc2cnc(N(C)C)nc21  inactive
4  N#Cc1c(-c2ccc3c(c2)OCO3)ccn2nc(-c3cccc(C(F)(F)F)c3)nc12  inactive

###

Target: Cytochrome P450 2C9 (Homo sapiens) (UniProt P11712)
Assay: Cytochrome panel assay with activity outcomes
Conditions: recombinant CYP, pro-luciferin dealkylation, luminescence, p450-cyp2c9; series mostly up to 57.1 µM
The whole screen tested about 16,000 compounds, of which about 4,000 (25%) were called active. About 26% were inconclusive and are not listed. Calls follow the shape of the dose curve; as a rule, active = well fitted curve in the direction sought with a large enough effect; inconclusive = small, poorly fitted or top-dose-only effect, or effect the other way; inactive = no such curve, though single readings can be large or run the other way. Not all results are given here.
Outcome codes: 1 (yes) = active, 0 (no) = inactive

> print(dat)
                                    compound                               test.system  label.value
 1  O=C1c2ccccc2C(=O)N1CCCCN(C(=O)c1ccc([N+](=O)[O-])cc1)c1ccc(Cl)cc1  Cytochrome P450 2C9 (Homo sapiens) (UniProt P11712)      1 (yes)
 2  C#C[C@]1(O)CC[C@@H]2[C@H]3CCc4cc(OC)ccc4[C@@H]3CC[C@@]21C  Cytochrome P450 2C9 (Homo sapiens) (UniProt P11712)       0 (no)
 3                 COC(=O)CSc1ncc(OC)c(OC)n1  Cytochrome P450 2C9 (Homo sapiens) (UniProt P11712)       0 (no)
 4  Cc1ccc(CSc2nnc(C(F)(F)F)n2Cc2ccc(F)cc2)cc1  Cytochrome P450 2C9 (Homo sapiens) (UniProt P11712)      1 (yes)
 5        CCOC(=O)C1=C(O)C(=O)N(Cc2ccccc2)C1  Cytochrome P450 2C9 (Homo sapiens) (UniProt P11712)      1 (yes)
 6  CCN1CCN(C(=O)C2c3cc(OC)c(OC)cc3C(=O)N3CCc4ccccc4C23)CC1 (stereo not given)  Cytochrome P450 2C9 (Homo sapiens) (UniProt P11712)       0 (no)
 7  COCC(=O)N1CCC2(CC1)CCN(C(c1ccccc1)c1ccccc1)CC2  Cytochrome P450 2C9 (Homo sapiens) (UniProt P11712)       0 (no)
 8  Cc1cccc(N(C)S(=O)(=O)c2ccc3[nH]c(=O)c(=O)[nH]c3c2)c1  Cytochrome P450 2C9 (Homo sapiens) (UniProt P11712)      1 (yes)
 9  Cc1c(CC(C)(C)C(=O)O)n(Cc2ccc(Cl)cc2)c2ccc(F)cc12  Cytochrome P450 2C9 (Homo sapiens) (UniProt P11712)       0 (no)
10           CNC(=O)c1sc(SC)cc1-c1ccc(Cl)cc1  Cytochrome P450 2C9 (Homo sapiens) (UniProt P11712)      1 (yes)
